Values compiled from the supplement of paper PMC10126150.

# System: ATP;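 note: ATP exposure 15 min at 22 °C before imaging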
# Assay summary: switch fluorescence ratio, 500 uM ATP over buffer (Cy3 cluster intensity, sum of 5 cycles each) (fold (ratio)); higher = stronger signal-on switching upon ATP binding; sequences stand for … in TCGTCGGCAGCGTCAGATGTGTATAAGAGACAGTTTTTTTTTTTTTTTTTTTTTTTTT…TC
# Condition notes: aptamer strand: ATP DNA aptamer (quencher-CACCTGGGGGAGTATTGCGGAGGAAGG + anchor), 100 nM annealed; ATP concentration: 500 uM
Measured attribute: switch fluorescence ratio
Answers are plain numbers.

Previously resolved entries follow.
- Sequence record: "CCAGGGTGCT"
  switch fluorescence ratio: 2
- Sequence record: "TACTGGGGGA"
  switch fluorescence ratio: 1.07

Each sequence below has a recorded value; state its switch fluorescence ratio.
1. TTTATGGGGT
2. TGCTGGGGAC
3. CAACAAGGGA

OUTPUT:
1: 1.01; 2: 0.992; 3: 1.04

For every item below, please supply its switch fluorescence ratio.
1. TTATTACCTA
2. TTTTTCTCCC
3. GGGGGAGGCA
4. GTTAAAATTA
5. GGAGCGGCGG

OUTPUT:
1. 1.06
2. 1.03
3. 0.966
4. 1.01
5. 1.02

---

# System: ATP;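 note: ATP exposure 15 min at 22 °C before imaging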
# Assay summary: switch fluorescence ratio, 500 uM ATP over buffer (Cy3 cluster intensity, sum of 5 cycles each) (fold (ratio)); higher = stronger signal-on switching upon ATP binding; sequences stand for … in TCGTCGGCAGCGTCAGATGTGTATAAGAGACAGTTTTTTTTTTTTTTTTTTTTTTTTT…TC
# Condition notes: aptamer strand: ATP DNA aptamer (quencher-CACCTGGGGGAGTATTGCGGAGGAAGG + anchor), 100 nM annealed; ATP concentration: 500 uM
Measured attribute: switch fluorescence ratio
One number for each entry.

Answered examples (5):
- Sequence record: "GGGAGCATCG"
  Experimental value: 0.971
- Sequence record: "TTTGGGGATG"
  Experimental value: 1
- Sequence record: "AACTTCGGTG"
  Experimental value: 0.984
- Sequence record: "TGTAAGGGTG"
  Experimental value: 0.974
- Sequence record: "GATGTGTGCG"
  Experimental value: 0.897

Give me switch fluorescence ratio for each of these sequences, listed below.
1. CCGGCTTTAG
2. AACGGACTTA
3. CGTGTGTGCA
4. TACTTTATTA
5. TCATTGGCAT

OUTPUT:
[0.99, 1.25, 1, 1.02, 1.03]

---

# Test system: ATP;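 note: ATP exposure 15 min at 22 °C before imaging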
# Assay summary: switch fluorescence ratio, 500 uM ATP over buffer (Cy3 cluster intensity, sum of 5 cycles each) (fold (ratio)); higher = stronger signal-on switching upon ATP binding; sequences stand for … in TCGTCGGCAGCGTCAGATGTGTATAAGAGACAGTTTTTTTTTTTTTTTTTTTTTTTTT…TC
# Condition notes: aptamer strand: ATP DNA aptamer (quencher-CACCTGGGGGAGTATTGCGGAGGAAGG + anchor), 100 nM annealed; ATP concentration: 500 uM
So I've got a bunch of sequences here, and I need their switch fluorescence ratio values.
One number for each entry.

- Sequence record: "ATAATAGGGA"
  switch fluorescence ratio: 0.982
- Sequence record: "TTTTTTGGAG"
  switch fluorescence ratio: 1.01
- Sequence record: "GGGGTGGTTA"
  switch fluorescence ratio: 0.995
- Sequence record: "ACACTTAAGT"
  switch fluorescence ratio: 1.02
- Sequence record: "GTGTTTATGC"
  switch fluorescence ratio: 0.991

Could I get switch fluorescence ratio for every one of these entries?
1. AGTGAGCAGG
2. GGCGGGGGCG
3. CCGGGGTCTG
4. CTTTGGTAGG
5. GGCAGACTTC
6. ATATTTAGAG
7. TGAGTTGGGA

OUTPUT:
1. 1.11
2. 1.07
3. 0.995
4. 0.992
5. 1.02
6. 0.992
7. 1

// input: 3 sequences below; output: switch fluorescence ratio for each
1. GTGGTTGGCC
2. TGAAGGGGCT
3. GCTTCTATGC

OUTPUT:
1: 1.01; 2: 0.983; 3: 1.02

I would be grateful if you could provide switch fluorescence ratio for each of the following entries.
1. GGGTACCTGT
2. TTTGGGTCTG
3. GATATATTGC

OUTPUT:
[1.01, 0.992, 1.03]
